Target: Ryanodine receptor 2 (Mus musculus)
Assay: Inhibition of Full length wild type mouse RyR2 expressed in Flp-In-T-REx-293 cells assessed as increase in Ca2+ release endoplasmic reticulum by flex-station 3 fluorometer analysis
Type: cell-based
pEC50: −log10 of the molar value.
Measured metric: pEC50

// known answers, use as guide
structure=COc1ccc(N(C)C(=O)Cn2nnc(-c3cccc(F)c3)n2)cc1 system_tested="Ryanodine receptor 2 (Mus musculus)" measured_metric=pEC50 reported_measurement=7.55
structure=COc1cccc(-c2nnn(CC(=O)N(C)c3ccccc3)n2)c1 system_tested="Ryanodine receptor 2 (Mus musculus)" measured_metric=pEC50 reported_measurement=6.74
structure=Nc1nc2ccc(OC(F)(F)F)cc2s1 system_tested="Ryanodine receptor 2 (Mus musculus)" measured_metric=pEC50 reported_measurement=5.00
structure=CCN(C(=O)Cn1nnc(-c2ccccc2)n1)c1ccccc1 system_tested="Ryanodine receptor 2 (Mus musculus)" measured_metric=pEC50 reported_measurement=5.39

[1] CN(C(=O)Cn1nnc(-c2cccc(F)c2)n1)c1ccccc1
[2] CN(C(=O)Cn1nnc(-c2ccccc2)n1)c1ccccc1F
[3] COc1cccc(N(C)C(=O)Cn2nnc(-c3ccccc3)n2)c1
[4] COc1cccc(-c2nnn(CC(=O)N(C)c3ccc(OC)c(F)c3)n2)c1
Parameters: sort_field (pEC50), sort_dir (desc). Would you mind listing the labels in the order asked for?
4, 1, 2, 3

---

Biological target: Ryanodine receptor 2 (Mus musculus)
Experiment: Inhibition of Full length wild type mouse RyR2 expressed in Flp-In-T-REx-293 cells assessed as increase in Ca2+ release endoplasmic reticulum by flex-station 3 fluorometer analysis
Measured metric: EC50 (nM)

compound=CN(C(=O)Cn1nnc(-c2ccccc2)n1)c1ccccc1 reported_measurement=696
compound="COC(=O)c1c(C)cc(O)cc1O [METHYL ORSELLINATE]" reported_measurement=1100

[a] COc1cccc(-c2nnn(CC(=O)N(C)c3ccc(F)cc3)n2)c1
[b] COc1ccc(-c2nnn(CC(=O)N(C)c3ccc(F)cc3)n2)cc1OC
[c] COc1ccccc1-c1nnn(CC(=O)N(C)c2ccccc2)n1
I would appreciate it if you could sort these 3 compounds by EC50, starting from the smallest number. Field: ranking. Enter the labels in the order requested.
a, b, c
(a: 23 nM, b: 1140 nM, c: 2920 nM)

---

Target: Ryanodine receptor 2 (Mus musculus, UniProt E9Q401)
Sequence (E9Q401 whole entry): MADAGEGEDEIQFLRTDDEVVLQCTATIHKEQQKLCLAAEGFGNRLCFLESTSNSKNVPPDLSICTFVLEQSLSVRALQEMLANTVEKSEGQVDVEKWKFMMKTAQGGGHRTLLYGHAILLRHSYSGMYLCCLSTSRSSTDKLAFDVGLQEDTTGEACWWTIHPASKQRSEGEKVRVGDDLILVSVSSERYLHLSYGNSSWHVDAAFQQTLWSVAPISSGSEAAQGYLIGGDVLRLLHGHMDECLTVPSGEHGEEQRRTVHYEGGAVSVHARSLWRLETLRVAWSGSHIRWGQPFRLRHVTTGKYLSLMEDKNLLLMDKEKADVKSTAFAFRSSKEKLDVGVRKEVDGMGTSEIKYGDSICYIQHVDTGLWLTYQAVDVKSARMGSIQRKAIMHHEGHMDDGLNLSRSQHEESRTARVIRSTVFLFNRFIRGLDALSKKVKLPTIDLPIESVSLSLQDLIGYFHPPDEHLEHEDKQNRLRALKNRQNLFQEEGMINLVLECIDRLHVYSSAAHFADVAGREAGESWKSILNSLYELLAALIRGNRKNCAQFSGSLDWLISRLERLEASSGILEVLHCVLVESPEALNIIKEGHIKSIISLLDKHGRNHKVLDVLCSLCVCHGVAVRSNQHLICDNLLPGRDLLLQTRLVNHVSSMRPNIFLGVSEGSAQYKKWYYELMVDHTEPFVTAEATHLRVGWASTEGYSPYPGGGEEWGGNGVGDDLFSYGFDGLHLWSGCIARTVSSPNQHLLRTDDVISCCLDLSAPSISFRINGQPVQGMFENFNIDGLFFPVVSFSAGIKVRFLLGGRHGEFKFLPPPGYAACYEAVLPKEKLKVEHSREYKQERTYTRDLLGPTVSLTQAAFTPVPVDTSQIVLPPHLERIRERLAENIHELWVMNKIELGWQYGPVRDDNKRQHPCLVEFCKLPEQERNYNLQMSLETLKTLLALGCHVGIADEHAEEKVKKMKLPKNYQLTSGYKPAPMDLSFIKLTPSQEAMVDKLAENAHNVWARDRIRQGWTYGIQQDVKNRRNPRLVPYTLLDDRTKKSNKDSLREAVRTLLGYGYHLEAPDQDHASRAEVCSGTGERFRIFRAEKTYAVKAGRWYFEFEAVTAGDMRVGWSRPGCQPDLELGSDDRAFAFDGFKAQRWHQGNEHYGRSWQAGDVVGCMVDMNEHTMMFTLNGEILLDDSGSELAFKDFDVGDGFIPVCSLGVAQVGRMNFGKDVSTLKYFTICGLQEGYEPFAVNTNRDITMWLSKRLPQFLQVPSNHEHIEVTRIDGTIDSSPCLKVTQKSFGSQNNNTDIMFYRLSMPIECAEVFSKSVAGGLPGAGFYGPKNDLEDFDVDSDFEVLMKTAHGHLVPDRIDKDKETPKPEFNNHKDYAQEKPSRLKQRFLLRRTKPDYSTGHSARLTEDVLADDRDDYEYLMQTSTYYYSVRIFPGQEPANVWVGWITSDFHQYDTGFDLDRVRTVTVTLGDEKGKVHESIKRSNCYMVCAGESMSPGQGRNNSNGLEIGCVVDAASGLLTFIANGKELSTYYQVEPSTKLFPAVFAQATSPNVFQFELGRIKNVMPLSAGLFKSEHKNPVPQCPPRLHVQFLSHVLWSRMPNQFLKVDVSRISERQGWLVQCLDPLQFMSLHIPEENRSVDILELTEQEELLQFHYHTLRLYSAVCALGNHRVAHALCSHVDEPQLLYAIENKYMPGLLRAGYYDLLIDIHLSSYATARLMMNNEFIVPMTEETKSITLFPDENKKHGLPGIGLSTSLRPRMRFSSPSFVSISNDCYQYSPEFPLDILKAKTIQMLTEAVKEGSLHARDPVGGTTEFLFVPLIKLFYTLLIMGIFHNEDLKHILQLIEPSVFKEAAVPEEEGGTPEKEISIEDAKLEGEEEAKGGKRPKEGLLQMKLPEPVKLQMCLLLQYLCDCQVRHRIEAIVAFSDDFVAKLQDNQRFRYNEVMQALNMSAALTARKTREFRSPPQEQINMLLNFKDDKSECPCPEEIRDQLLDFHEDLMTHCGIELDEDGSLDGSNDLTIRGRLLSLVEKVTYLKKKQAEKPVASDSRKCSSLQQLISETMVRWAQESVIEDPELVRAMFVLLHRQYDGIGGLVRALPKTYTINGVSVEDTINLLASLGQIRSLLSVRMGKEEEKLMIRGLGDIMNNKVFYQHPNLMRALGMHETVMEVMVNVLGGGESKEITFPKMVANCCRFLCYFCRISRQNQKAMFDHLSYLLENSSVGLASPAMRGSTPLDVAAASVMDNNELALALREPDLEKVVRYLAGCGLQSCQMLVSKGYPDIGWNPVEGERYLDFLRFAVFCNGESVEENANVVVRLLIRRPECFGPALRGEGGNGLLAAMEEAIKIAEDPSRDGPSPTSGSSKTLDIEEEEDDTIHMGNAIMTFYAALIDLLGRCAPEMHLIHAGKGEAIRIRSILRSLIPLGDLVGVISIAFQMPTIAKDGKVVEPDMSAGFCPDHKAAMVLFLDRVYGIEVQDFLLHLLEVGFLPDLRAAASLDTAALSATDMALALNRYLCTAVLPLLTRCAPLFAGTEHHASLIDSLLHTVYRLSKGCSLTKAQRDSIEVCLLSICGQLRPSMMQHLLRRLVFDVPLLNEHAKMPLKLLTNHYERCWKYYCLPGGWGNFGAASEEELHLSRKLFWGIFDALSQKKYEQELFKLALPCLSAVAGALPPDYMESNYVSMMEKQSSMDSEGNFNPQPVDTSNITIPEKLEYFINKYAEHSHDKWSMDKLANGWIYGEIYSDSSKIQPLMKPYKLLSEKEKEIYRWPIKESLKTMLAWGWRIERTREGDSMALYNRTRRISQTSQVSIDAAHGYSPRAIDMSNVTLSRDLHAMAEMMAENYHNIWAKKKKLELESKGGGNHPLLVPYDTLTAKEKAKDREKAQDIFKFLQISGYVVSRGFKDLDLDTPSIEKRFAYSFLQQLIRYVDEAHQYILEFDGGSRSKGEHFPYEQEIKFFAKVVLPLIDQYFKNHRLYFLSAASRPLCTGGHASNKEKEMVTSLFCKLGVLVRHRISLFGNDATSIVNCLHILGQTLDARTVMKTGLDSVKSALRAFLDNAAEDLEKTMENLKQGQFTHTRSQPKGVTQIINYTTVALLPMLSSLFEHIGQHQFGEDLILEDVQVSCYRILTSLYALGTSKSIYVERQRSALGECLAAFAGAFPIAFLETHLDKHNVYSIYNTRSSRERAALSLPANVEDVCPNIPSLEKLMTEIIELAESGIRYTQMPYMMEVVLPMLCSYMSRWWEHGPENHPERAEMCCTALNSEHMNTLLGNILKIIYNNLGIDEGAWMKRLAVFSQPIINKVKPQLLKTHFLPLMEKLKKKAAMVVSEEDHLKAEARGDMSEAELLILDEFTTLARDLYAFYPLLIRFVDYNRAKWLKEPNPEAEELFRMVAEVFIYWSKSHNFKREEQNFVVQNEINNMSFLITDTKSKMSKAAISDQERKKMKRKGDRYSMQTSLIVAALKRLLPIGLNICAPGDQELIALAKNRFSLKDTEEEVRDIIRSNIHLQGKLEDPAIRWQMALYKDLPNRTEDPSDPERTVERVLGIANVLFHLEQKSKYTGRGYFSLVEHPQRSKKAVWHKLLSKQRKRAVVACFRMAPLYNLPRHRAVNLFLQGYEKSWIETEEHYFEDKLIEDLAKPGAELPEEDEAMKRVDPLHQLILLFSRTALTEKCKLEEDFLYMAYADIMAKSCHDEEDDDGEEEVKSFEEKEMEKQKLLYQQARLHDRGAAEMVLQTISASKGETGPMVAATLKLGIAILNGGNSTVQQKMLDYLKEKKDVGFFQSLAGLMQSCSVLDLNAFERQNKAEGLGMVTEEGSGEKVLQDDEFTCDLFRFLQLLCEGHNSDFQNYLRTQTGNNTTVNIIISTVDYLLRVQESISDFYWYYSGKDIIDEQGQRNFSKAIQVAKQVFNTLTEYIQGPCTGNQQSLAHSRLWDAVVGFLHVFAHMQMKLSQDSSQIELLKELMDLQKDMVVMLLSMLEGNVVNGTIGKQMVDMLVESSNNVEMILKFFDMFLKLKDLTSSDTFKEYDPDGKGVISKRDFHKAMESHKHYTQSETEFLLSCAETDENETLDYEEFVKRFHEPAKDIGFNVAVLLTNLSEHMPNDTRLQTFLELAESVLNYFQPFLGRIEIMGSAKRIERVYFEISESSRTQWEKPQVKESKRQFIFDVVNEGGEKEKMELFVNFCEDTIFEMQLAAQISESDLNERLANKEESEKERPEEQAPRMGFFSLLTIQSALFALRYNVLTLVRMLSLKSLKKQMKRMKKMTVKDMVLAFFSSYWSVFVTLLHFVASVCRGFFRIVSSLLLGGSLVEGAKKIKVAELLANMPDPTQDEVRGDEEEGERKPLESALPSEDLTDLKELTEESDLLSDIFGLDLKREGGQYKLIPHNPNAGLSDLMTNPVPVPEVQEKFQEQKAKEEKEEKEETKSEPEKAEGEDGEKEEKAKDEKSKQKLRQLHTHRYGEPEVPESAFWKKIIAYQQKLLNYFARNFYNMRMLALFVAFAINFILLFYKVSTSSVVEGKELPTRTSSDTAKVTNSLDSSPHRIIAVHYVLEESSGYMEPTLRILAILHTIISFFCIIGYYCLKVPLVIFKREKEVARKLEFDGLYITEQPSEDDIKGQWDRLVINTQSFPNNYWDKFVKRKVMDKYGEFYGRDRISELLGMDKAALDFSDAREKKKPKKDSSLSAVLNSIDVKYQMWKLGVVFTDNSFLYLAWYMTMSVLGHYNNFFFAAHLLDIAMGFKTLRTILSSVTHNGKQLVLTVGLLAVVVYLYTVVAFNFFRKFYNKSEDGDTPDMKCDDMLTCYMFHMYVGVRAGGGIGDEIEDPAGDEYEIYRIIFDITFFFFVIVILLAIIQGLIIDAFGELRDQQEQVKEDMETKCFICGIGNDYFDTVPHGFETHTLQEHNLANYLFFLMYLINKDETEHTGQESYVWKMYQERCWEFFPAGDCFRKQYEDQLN
Experiment: Inhibition of Full length wild type mouse RyR2 expressed in Flp-In-T-REx-293 cells assessed as increase in Ca2+ release endoplasmic reticulum by flex-station 3 fluorometer analysis
pEC50: −log10 of the molar value.
Measured metric: pEC50

Here is how some compounds turned out for pEC50.
structure=CN(C(=O)Cn1nnc(-c2cc(F)cc(F)c2)n1)c1ccccc1 reported_measurement=7.66
structure=CN(C(=O)Cn1nnc(-c2ccccc2F)n1)c1ccccc1 reported_measurement=6.34
structure=CN(C(=O)Cn1nnc(-c2ccccc2)n1)c1cccc(F)c1 reported_measurement=6.63

[a] COc1ccc(-c2nnn(CC(=O)N(C)c3ccccc3)n2)cc1
[b] COc1ccc(N(C)C(=O)Cn2nnc(-c3cccc(OC)c3)n2)cc1
[c] COc1cc(-c2nnn(CC(=O)N(C)c3ccc(F)cc3)n2)ccc1F
[d] CN(C(=O)Cn1nnc(-c2ccc(F)cc2)n1)c1ccccc1
Arrange by pEC50, high to low. Put the labels in the requested order and list them out.
b, c, d, a

---

Molecular target: Ryanodine receptor 2 (Mus musculus, UniProt E9Q401)
Experiment: Inhibition of Full length wild type mouse RyR2 expressed in Flp-In-T-REx-293 cells assessed as increase in Ca2+ release endoplasmic reticulum by flex-station 3 fluorometer analysis
Measured metric: EC50 (nM)

[1] CN(C(=O)Cn1nnc(-c2cccc(F)c2)n1)c1ccc(F)cc1
[2] CN(C(=O)Cn1nnc(-c2ccccc2)n1)c1ccc(F)cc1
[3] COc1ccc(N(C)C(=O)Cn2nnc(-c3ccccc3)n2)cc1
[4] CN(C(=O)Cn1nnc(-c2cc(F)cc(F)c2)n1)c1ccc(F)cc1
Arrange the items listed above so that EC50 rises from first to last. In plain terms: list the labels in the order you were asked to.
4, 1, 2, 3

---

Molecular target: Ryanodine receptor 2 (Mus musculus, UniProt E9Q401)
Assay: Inhibition of Full length wild type mouse RyR2 expressed in Flp-In-T-REx-293 cells assessed as increase in Ca2+ release endoplasmic reticulum by flex-station 3 fluorometer analysis
# EC50 per entry

structure=COc1ccc(-c2nnn(CC(=O)Nc3ccccc3)n2)cc1 system_tested="Ryanodine receptor 2 (Mus musculus, UniProt E9Q401)" measured_metric=EC50 reported_measurement="> 30 µM"
structure=O=C(Cn1nnc(-c2cccc(F)c2)n1)N1CCc2ccccc21 system_tested="Ryanodine receptor 2 (Mus musculus, UniProt E9Q401)" measured_metric=EC50 reported_measurement="> 30 µM"
structure=O=C(Cn1nnc(-c2cc(F)cc(F)c2)n1)Nc1ccc(F)cc1 system_tested="Ryanodine receptor 2 (Mus musculus, UniProt E9Q401)" measured_metric=EC50 reported_measurement="> 30 µM"

Next:
// query EC50 value for entry O=C(Cn1nnc(-c2cccc(F)c2)n1)Nc1ccccc1
> 30 µM

meta.source: ChEMBL document CHEMBL5634156
